Values were extracted from the supplement of paper PMC9170038.

Test system: K4 kissing-loop RNA reporter;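 further: bound reporter read as fluorescence of individual clusters on recovered sequencing chips by microscopy, with normalized cluster intensities fitted with a binding model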
Test: apparent KD of K4 kissing-loop reporter; higher = weaker reporter binding
Conditions: Eterna round: R107; input ligand: tryptophan 2.4 mM
Classification field: enter YES for apparent KD of K4 kissing-loop reporter values not below 0.3 µM, NO for values below it.

Query block: // inclusive: apparent KD of K4 kissing-loop reporter at least 0.3 µM? input: UAUUCUGUUCGAAAGAACGGAAUUUCGGAAGGAGCGAGAGAAAUCUCAGGUAGGUCGCCGAAAUUAUUAGAUAGUGAUGUUAUCU [Arginine A K4 4]
Result block: NO

Query block: // inclusive: apparent KD of K4 kissing-loop reporter at least 0.3 µM? input: CCUGCAGCUGUUACCGAGGGAUGCUACGGACGAGGACCGGUACGGCCGCCACUCGCCAGUGAUGUUGGUGAGGGAGGACGUUCCU [Georte]
Result block: NO

Query block: // inclusive: apparent KD of K4 kissing-loop reporter at least 0.3 µM? input: `UGAUAGGACAGAAGGAGCGGGAGUGAUGUUCCCAAAAGGAUAAGGUGUCAAAAGACACCCUCCCAGGUAGGUCGCUGUCCUAUCU`
Result block: YES

Query block: // inclusive: apparent KD of K4 kissing-loop reporter at least 0.3 µM? input: AUUCGUUUUUGUGAUACCAGACAUGUGAGUGAUGUUUACAUAUAUAUUUAAUAUUUAGCUGUCCCUUGGCAGCACUGUUUAUUUA [JR_ExcTheophyB_Sub003]
Result block: NO

Query block: // inclusive: apparent KD of K4 kissing-loop reporter at least 0.3 µM? input: GGUGAUGAGCACGAUACCAGCCUCGGAGCCAGUGAUGUUGGCCCAGUUUAGAAUAAGACAGGCCCUUGGCAGCGUGACGAUGGCU [Inorusre]
Result block: YES

Query block: // inclusive: apparent KD of K4 kissing-loop reporter at least 0.3 µM? input: UGUGCCAAAUGUGAUACCAGCAUCCUGCAGUGAUGUUGCAUACGAGUGAUGUUCGUCCGAUGCCCUUGGCAGCGCAGUAGUUUGA [Same State Theophylline B GF 26]
Result block: NO
